Target: T1, human PILRA, G78 variant, ectopically expressed on 293 cells (human, UniProt Q9UKJ1 20-303)
T1 construct: the cells are labelled G78; also called hA G78 OE; hA
T1 sequence (Q9UKJ1 other isoform, or with tags, fused parts or gaps mutant): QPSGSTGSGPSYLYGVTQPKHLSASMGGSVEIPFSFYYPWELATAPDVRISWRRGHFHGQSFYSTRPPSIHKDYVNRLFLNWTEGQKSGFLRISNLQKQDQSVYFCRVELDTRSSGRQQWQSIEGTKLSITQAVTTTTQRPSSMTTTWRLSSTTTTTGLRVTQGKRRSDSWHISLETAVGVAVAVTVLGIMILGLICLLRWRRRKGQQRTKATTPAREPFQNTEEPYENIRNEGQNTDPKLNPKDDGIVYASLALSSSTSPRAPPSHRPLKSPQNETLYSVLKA
Assay: flow cytometry, 293 cells expressing target
outcome_measure: EC50 (µg/mL)
Reply with just the number (in µg/mL).

E1 (antibody, V domains shown, second hybridoma campaign) VH: EVQLVESGGGLVQPGESLKLSCESNEYEFPSHDMSWVRKTPEKRLELVAAINSDGGSTYYPDTMERRFIISRDNTKKTLYLQMSSLRSEDTALYYCARQLMGTGAMDYWGQGTSVTVSS VL: DIQMTQSSSYLSVSLGGRVTITCKASDHINNWLAWYQQKPGNAPRLLISGATSLETGVPSRFSGSGSGKDYTLSITSLQTEDVATYYCQQYWSTPYTFGGGTKLEIK    40.4
D8 (antibody, V domains shown, second hybridoma campaign; same VH/VL as D6) VH: EVQLQQSGPELVKPGASVKMSCKASGYTFTDYYMDWVKQSHGESFEWIGRVNPYTGDSSYNQKFKGKATLTVDKSSNTAYLEFNSLTSEGSAVYYCARSDGYHYKYAMDYWGQGTSVTVSS VL: DVVMTQTPLSLPVSLGDQASISCRSSQSLVHSTGNTYLHWYLQKPGQSPNLLIYKISNRFSGVPDRFSGSGSGTDFTLKISRVEAEDLGVYFCSQSTHVPYTFGGGTKLEIK    0.1
E9 (antibody, V domains shown, phage campaign) VH: QVQLVQSGAEVKKPGASVKVSCKASGGTFSSYSINWVRQAPGQGLEWMGWINPHSGATKYAERFQGRVTMTRDTSTSTVYMELSSLRSEDTAVYYCASAEEPYDILTGYYGGDAFDIWGQGTMVTVSS VL: DIQMTQSPSSLSASVGDRVTITCRASQSISKYLNWYQQKPGKAPKLLIYDASNLQAGVPSRFSGSGSGTDFTLTISSLQPEDFATYYCQQANSFPYTFGQGTKLEIK    1.2
A10 (antibody, V domains shown, phage campaign) VH: QVQLVQSGAEVKKPGASVKVSCKASGYTFTDYYIHWVRQAPGQGLEWMGWMNPNSGNTGYAQKFQGRVTMTRDTSTSTVYMELSSLRSEDTAVYYCAREGSSGWYVDYWGQGTLVTVSS VL: DIQMTQSPSSLSASVGDRVTITCQASQDISQFLNWYQQKPGKAPKLLIYDAYSLQSGVPSRFSGSGSGTDFTLTISSLQPEDFATYYCQQANSFPLTFGQGTKVEIK    1.1

// moving on: another record for EC50
Reported EC50 for D4 (antibody, V domains shown, second hybridoma campaign) VH: QVQLQQSGADLARPGASVKLSCKASGYTFTSYGIAWMKQRTGQGLEWIGEIYPRSGNPYYNDRFKGKATLTADRSSNTTYMELRSLTSEDSAVYFCARWVGGIIDYWGQGTSVTVSS VL: DIVMTQSQKFMSTSIGDRVSVTCKASQNVGFNVAWYQQKPGQSPKPLIYSASYRYSGVPDRFTGSESGTEFTLIISNVQSEDLAEYFCQQYDSYPFTFGSGTNLEIK was 0.4
